test-target: T1, HpDnaB replicative helicase (Helicobacter pylori, UniProt O25916 1-488)
T1 sequence: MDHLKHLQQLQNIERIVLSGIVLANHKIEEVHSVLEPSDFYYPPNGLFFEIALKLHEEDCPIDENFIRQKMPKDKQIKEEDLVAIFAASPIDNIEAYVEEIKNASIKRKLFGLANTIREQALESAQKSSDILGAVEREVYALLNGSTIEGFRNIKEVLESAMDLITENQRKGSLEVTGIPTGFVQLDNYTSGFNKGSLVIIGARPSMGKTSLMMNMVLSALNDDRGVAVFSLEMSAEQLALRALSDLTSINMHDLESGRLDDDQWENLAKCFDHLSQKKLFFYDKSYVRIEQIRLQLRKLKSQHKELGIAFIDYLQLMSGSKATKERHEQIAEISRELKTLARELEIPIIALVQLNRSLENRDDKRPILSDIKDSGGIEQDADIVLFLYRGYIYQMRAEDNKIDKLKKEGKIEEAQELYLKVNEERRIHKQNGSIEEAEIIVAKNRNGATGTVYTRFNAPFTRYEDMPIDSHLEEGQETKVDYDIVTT
procedure-text: fluorescence anisotropy
value-kind: pKd
pKd is a log-scale quantity: -log10 of the concentration expressed in molar.

[ask] Item under review: TTTTTTTTTTTTTTTTTTTTTTTTTTTTTTTTTTTTTTTTTTTTTTTTTT (ssDNA) [50dT] . Reported pKd?
[reply] 7.15
